Where these numbers come from: patent US20050170485A1

Tested on: laccase from Japanese lacquer
Experiment: Direct oxidation reaction by laccase (comparison)
Format: biochemical
Conditions: reaction pH 7.0; 2-chloro 1,4-phenylenediamine = 100
Would you kindly list Relative Activity, Laccase from Japanese Lacquer (direct oxidation) for each of these compounds?
The reply should contain only the number, in %.

# return recorded Relative Activity, Laccase from Japanese Lacquer (direct oxidation) for input Nc1ccc(Nc2ccccc2)cc1 [N-Phenyl-p-phenylenediamine]
94

Output Relative Activity, Laccase from Japanese Lacquer (direct oxidation) of Nc1cccc(O)c1 [m-Aminophenol]
3

Return value of Relative Activity, Laccase from Japanese Lacquer (direct oxidation) for input Cc1ccc(N)c(N)c1 [Toluylene-3,4-diamine] , no commentary.
61

Annotate the compound Cc1ccc(N)cc1O [5-Amino-o-cresol] with its measured Relative Activity, Laccase from Japanese Lacquer (direct oxidation).
1

For the compound CCCOC(=O)c1cc(O)c(O)c(O)c1 [Propyl Gallate] , give its measured Relative Activity, Laccase from Japanese Lacquer (direct oxidation) value.
14

Tell me its Relative Activity, Laccase from Japanese Lacquer (direct oxidation) given Oc1cccc2ccccc12 [1-Naphthol] as the entry.
17

Using known records, supply Relative Activity, Laccase from Japanese Lacquer (direct oxidation) for O=C(O)c1cc(O)c(O)c(O)c1 [Gallic acid]
9

Specify Relative Activity, Laccase from Japanese Lacquer (direct oxidation) for Oc1ccccc1O [Catechol] and stop.
2

Specify reported Relative Activity, Laccase from Japanese Lacquer (direct oxidation) for the compound shown: Oc1cccc(O)c1 [Resorcinol]
25

Fill in Relative Activity, Laccase from Japanese Lacquer (direct oxidation) for record Nc1ccc(O)cc1 [p-Aminophenol]
109

Determine its reported Relative Activity, Laccase from Japanese Lacquer (direct oxidation): Oc1ccc(O)cc1 [Hydroquinone]
2

Using known records, supply Relative Activity, Laccase from Japanese Lacquer (direct oxidation) for Nc1ccc(N)c(Cl)c1 [2-Chloro 1,4-phenylenediamine]
100

State, in one line, measured Relative Activity, Laccase from Japanese Lacquer (direct oxidation) of Nc1ccc(N)cc1 [p-Phenylenediamine]
142

Check the records and state Relative Activity, Laccase from Japanese Lacquer (direct oxidation) for Cc1cc(N)ccc1N [2,5-Diaminotoluene]
44

Annotate the compound O=C(c1ccc(O)cc1)c1ccc(O)c(O)c1O [2,3,4,4-Tetrahydroxybenzophenone] with its measured Relative Activity, Laccase from Japanese Lacquer (direct oxidation).
179

Give recorded Relative Activity, Laccase from Japanese Lacquer (direct oxidation). Nc1cccc(N)c1 [m-Phenylenediamine]
4

Give me measured Relative Activity, Laccase from Japanese Lacquer (direct oxidation), please, for this compound: C1=CCC2=CC=CCC2=C1 [1,5-Dihydronaphthalene]
47

Specify measured Relative Activity, Laccase from Japanese Lacquer (direct oxidation) for O=C(c1ccccc1)c1ccc(O)c(O)c1O [2,3,4-Trihydroxybenzophenone] .
175

State, in one line, measured Relative Activity, Laccase from Japanese Lacquer (direct oxidation) of Nc1ccccc1O [o-Aminophenol]
103

// Input: COc1cccc(OC)c1O [2,6-Dimethoxyphenol] . Output its Relative Activity, Laccase from Japanese Lacquer (direct oxidation) only.
21

For the compound Oc1cccc(O)c1O [Pyrogallol] , give its reported Relative Activity, Laccase from Japanese Lacquer (direct oxidation).
187

Check the records and state Relative Activity, Laccase from Japanese Lacquer (direct oxidation) for CNc1ccc(O)cc1 [p-Methylaminophenol]
308
